Target: T1, LRP1 CR3-5 (UniProt Q07954 852-973, limits assumed)
T1 construct: domain: CR3-5; also called LRP1 CR domains
T1 sequence (Q07954 852-973 limits assumed): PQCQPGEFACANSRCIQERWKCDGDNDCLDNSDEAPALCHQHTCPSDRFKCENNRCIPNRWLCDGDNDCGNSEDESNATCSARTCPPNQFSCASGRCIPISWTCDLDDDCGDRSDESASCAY
Experiment: solid-phase binding, OD at highest concentration against highest OD of all ligands
ASSAY METRIC: % max (percent of maximum binding) (%)

Consider the reported % max (percent of maximum binding) for these binders:
{"BINDER": "MegaRAP1 d3 A256K, E270K (ligand, also called MegaRAP1 A256K, E270K) GLDRLRRVSHQGYTTEAKFEEPRVIDLWDLAQSANLTDKELEAFREELKYFKAKIEKHNHYQKQLEIAHEKLRHAESVGDGERVSRSREKHALLEGRTKELGYTVKKHLQDLSGRISRARHNEL", "% max (percent of maximum binding) [%]": 93}
{"BINDER": "RAP d3 K256A, K270E (ligand, also called RAP K256A, K270E) GLDRLRRVSHQGYSTEAEFEEPRVIDLWDLAQSANLTDKELEAFREELKHFEAKIEAHNHYQKQLEIAHEELRHAESVGDGERVSRSREKHALLEGRTKELGYTVKKHLQDLSGRISRARHNEL", "% max (percent of maximum binding) [%]": 2}

P: MegaRAP1 d3 T213S (ligand, also called MegaRAP1 T213S) GLDRLRRVSHQGYSTEAKFEEPRVIDLWDLAQSANLTDKELEAFREELKYFKAKIEAHNHYQKQLEIAHEELRHAESVGDGERVSRSREKHALLEGRTKELGYTVKKHLQDLSGRISRARHNEL
Q: MegaRAP1 d3 (ligand, also called RAPv2A d3; RAP v2) GLDRLRRVSHQGYTTEAKFEEPRVIDLWDLAQSANLTDKELEAFREELKYFKAKIEAHNHYQKQLEIAHEELRHAESVGDGERVSRSREKHALLEGRTKELGYTVKKHLQDLSGRISRARHNEL
Q: Kindly identify which of P and Q has the larger recorded % max (percent of maximum binding) value. Answer = label.
Result: Q
(Q: 4%, P: 2%)
